Measured T1/2, listed per entry for reference.
Molecular target: T1, hGDF11 homodimer (human, UniProt O95390 299-407)
T1 sequence (looked up): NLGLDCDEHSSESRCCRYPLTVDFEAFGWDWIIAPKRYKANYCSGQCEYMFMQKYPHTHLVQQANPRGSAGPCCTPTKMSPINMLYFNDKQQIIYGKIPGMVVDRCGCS
Experiment: SPR, antibody captured, 25 nM antigen

{"columns": ["binder", "T1/2"],
 "data": [
  ["9B4-3 (antibody, V domains shown) VH: EVQLLESGGGLVQPGESLRLSCAASGFTFSSYAMNWVRQAPGKGLEWVSTISGSGGYIYYADSVKGRFTISRDNSKNTLYLQMNSLRAEDTAVYFCAKDSRYNWNYGNFDYWGQGTLVTVSS VL: EIVMTQSPATLSVSPGERATLSCRASQNVSSNLAWNKQKPGQAPRLLIYATSTRATGVPARFSASGSGTDFALTINSLQSEDFAVYYCQQYNNWPLTFGGGTKVEIK", "32 min"]
]}

Please give the measured T1/2 for this binder: 21-B9 (antibody, V domains shown) VH: QVQLVQSGPGLVKPSETLSLTCTVSGGSISNSNYYWGWIRQPPGKGLEWIGTTYYSGTTYYNPSLKSRVTISVDTSKNQFSLKLSSVTAADTAVYYCARDYYDSSGYYYNWFDPWGQGTTVTVSS VL: DIQLTQSPSSLSASVGDRVTITCRASQDIRNDLGWYQQKPGKAPKRLIYAASSLQSGVPSRFSGSGSGTEFSLTLSSLQPEDFATYFCLQHHIYPWTFGQGTKLEIKR 133 min

Fill blank: measured T1/2 of the binder 1A2 (antibody, V domains shown, also called 1A2 mAb) VH: EVQLLESGGGLVQPGGSLRLSCAASGFTSITYAMSWVRQAPGKGLEWVSAISVSGTNTYYADSVKGRFTISRDKSKNMLYLQMNSLRAEDTAVYYCAKDLLHNWKYGTFDIWGQGTMVTVSS VL: EIVMTQSPATLSVSPGERATLSCRASQSVDSNLVWYQQKPGQVPRLLIYGASTRATGIPARFSGSGSGTEFTLTISSLQSEDFAVYYCQQYNKWPLTFGGGTKVEIK is ____. 28 min
